Test system: HS 578T breast
Assay: NCI-60 one-dose screen, 48 h (100 = growth as untreated, 0 = no growth, -100 = all killed)
Details: 10 µM unless noted
This is part of a sample that, as a whole, favours compounds with a hit. Of some 83,000 tested, about 20% had one in any assay.
Note that class boundaries on growth are low: < 20%; middle: ≥ 20% and < 90%; high: ≥ 90%

Before answering, review these 2 worked examples.
COc1cc(C2CC(c3ccc(SC)cc3)=NN2C(C)=O)cc(OC)c1OC (stereo not given)	middle
COc1cc(/C=C/C(=O)/C=C/c2cc(OC)c3c(c2OC)OCO3)c(OC)c2c1OCO2	middle

Task item: Would you mind sorting C=CCc1cc(C)ccc1NC(C(=O)NCC(=O)OC)c1ccccc1 (stereo not given) into the appropriate category?
Reply: high

Task item: Param item: `O=c1ccn(Cc2cn(-c3c4ccccc4nc4ccccc34)nn2)c(=O)[nH]1`
Reply: high

Task item: Param item: `O=C(Cc1ccc(F)c(Cl)c1)Nc1cc(C2(C(F)(F)F)CC2)nn1CC1CCCCC1`
Reply: low

Task item: Param item: `CCOC(=O)Nc1ccc(-c2nc(-c3cccc(OC)c3)c(-c3ccnc(Br)c3)[nH]2)cc1`
Reply: low

Task item: Param item: `O=c1c2cc(F)ccc2sc2c(N3CCCCC3)nc3ccccc3c12`
Reply: high

Task item: Param item: CNc1nc2c(s1)C(c1cccc(F)c1)CC(=O)N2 (stereo not given)
Reply: high

Task item: Param item: `CSc1nc2ccc(C)cc2cc1/C=N/O`
Reply: middle

Task item: Param item: `COc1cc(CNS(=O)(=O)c2ccc(C)cc2)ccc1OCc1cn(-c2ccccc2)nn1`
Reply: middle

Task item: Param item: `COc1cc(C)c(Cc2cnc(N)nc2N)cc1OC`
Reply: high

Task item: Param item: CCN(CC)c1ccc(C2=NN(C(C)=O)C(c3cc(OC)c(OC)c(OC)c3)C2)cc1 (stereo not given)
Reply: low

====

Tested on: OVCAR-3 ovarian
Assay: NCI-60 one-dose screen, 48 h
Conditions: 10 µM unless noted
The panel holds about 83,000 compounds, 20% with a hit somewhere; the sample as a whole holds those more often. Active and inactive are the calls of the source. The calls were made as follows: active = growth percent below 10; inactive = the rest.
The reply should be one of these categories: active, inactive

COc1c(N2CC3CCCN(C(C)=O)C3C2)c(F)cc2c(=O)c(C(=O)N[C@H]3C(O)[C@@H](O)C(CO)O[C@H]3O)cn(C3CC3)c12 (stereo partly drawn)	inactive

Task item: Entry `CCCCn1c(=O)c(-c2cc(-c3ccc(Cl)cc3)nc(-c3ccc(Cl)cc3)c2)cc2ccc(Cl)cc21` : call = ?
Reply: inactive

Task item: Param item: `NC(=O)Nc1ccc2ncnc(Nc3ccc(Cl)cc3)c2c1`
Reply: inactive

====

Tested on: TK-10 renal
Assay: NCI-60 one-dose screen, 48 h (100 = growth as untreated, 0 = no growth, -100 = all killed)
Conditions: 10 µM unless noted
This is part of a sample that, as a whole, favours compounds with a hit. Of some 83,000 tested, about 20% had one in any assay.
List of growth values.
# number only, unit % dropped from output

The following molecules have reported results that may help.
COc1ccc2c(c1)c(-c1nn3cc(-c4cccs4)nc3s1)cn2C	73.3
COc1ccc(-c2conc2-c2ccccc2)cc1	6.72
CCC(=O)Nc1ccc(-c2nc(-c3cccc(OC)c3)c(-c3ccnc(Br)c3)[nH]2)cc1	90.4
Cc1ccc(C(C)C)cc1C(=O)C[n+]1ccccc1	103

Task item: Please state recorded growth (tested on TK-10 renal) of CC1=NN(c2ccc(S(=O)(=O)O)cc2)C(=O)C1N=Nc1ccc(-c2ccc(N=Nc3ccc(OS(=O)(=O)c4ccc(C)cc4)cc3)c(S(=O)(=O)O)c2)cc1 (stereo not given)
Reply: 97.2

Task item: Param item: `COc1ccc(-c2cc(-c3cc(OC)c(OC)c(OC)c3)nc(N3CCOCC3)c2C#N)cc1`
Reply: 100

Task item: Param item: `COc1ccc(/C=N/Nc2cc(=O)[nH]c3ccc(C)cc23)cc1`
Reply: 116

Task item: Param item: `CCOC(=O)c1cn2ncnc(Oc3ccc(NC(=O)NCCN(C)C)c(Cl)c3)c2c1C`
Reply: 105

Task item: Param item: `COc1cc(/C=C/c2ccccc2)cc(OC)c1`
Reply: 95.9

Task item: Param item: `COc1ccc2sc3c(NCCO)nc4ccccc4c3c(=O)c2c1`
Reply: 103
